Values compiled from patent US11919869B2.

Target: alkaline phosphatase (intestinal) (Bos taurus, UniProt P19111)
Construct: purchased MilliPore Sigma
Sequence (P19111 20-506 limits assumed): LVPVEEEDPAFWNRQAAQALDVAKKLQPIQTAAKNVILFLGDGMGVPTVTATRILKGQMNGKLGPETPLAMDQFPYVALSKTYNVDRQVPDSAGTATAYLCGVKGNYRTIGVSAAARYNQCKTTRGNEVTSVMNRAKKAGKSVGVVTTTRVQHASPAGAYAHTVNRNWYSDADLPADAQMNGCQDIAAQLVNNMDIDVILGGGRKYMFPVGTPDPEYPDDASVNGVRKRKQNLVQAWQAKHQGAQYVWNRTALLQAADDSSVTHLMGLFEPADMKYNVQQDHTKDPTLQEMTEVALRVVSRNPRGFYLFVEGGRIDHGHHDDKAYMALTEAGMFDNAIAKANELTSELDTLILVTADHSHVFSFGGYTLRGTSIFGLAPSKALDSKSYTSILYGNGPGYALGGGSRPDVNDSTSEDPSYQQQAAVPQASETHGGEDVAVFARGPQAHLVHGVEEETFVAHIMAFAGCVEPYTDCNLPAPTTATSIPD
Assay: Alkaline phosphatase stability assay
Assay type: in vitro ADME
Details: 2 μM substrate, 100 ng/mL purified Bovine intestinal alkaline phosphatase, Tris buffer pH 7.8; read-out: ALP half life
Measurement Label: half-life at 2 µM (min)

Recorded half-life at 2 µM, per entry:
O=c1[nH]c(=O)n(COP(=O)(O)O)cc1-c1cc([C@H]2C[C@@H]2c2ccc3cnn(CC(F)(F)F)c3n2)c2ncc(F)n2n1 | 14
O=c1[nH]c(=O)n(COP(=O)(O)O)cc1-c1cc([C@H]2C[C@@H]2c2ccc3cnn(CC(F)(F)F)c3c2)c2nccn2n1 | 11

P. O=c1[nH]c(=O)n(COP(=O)(O)O)cc1-c1cc([C@H]2C[C@@H]2c2ccc3cnn(CC(F)(F)F)c3c2)c2ncc(F)n2n1
Q. CC1(C)CN(c2cc(-c3cn(COP(=O)(O)O)c(=O)[nH]c3=O)nn3ccnc23)CC1(F)F
Exercise: Hey, which is lower on measured half-life at 2 µM, P or Q ? Please indicate the selected item by its label.
Key: P
